Protein target, amino acids: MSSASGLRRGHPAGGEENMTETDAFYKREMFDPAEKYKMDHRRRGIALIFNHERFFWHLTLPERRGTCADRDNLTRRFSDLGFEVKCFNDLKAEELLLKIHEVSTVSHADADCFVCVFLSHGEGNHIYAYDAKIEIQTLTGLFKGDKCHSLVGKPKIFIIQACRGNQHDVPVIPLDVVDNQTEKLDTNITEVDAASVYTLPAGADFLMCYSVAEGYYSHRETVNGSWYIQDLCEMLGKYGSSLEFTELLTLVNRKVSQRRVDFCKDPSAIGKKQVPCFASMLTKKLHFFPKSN
pKd: −log10 of the molar value.
MEASUREMENT_TYPE: pKd

Inquiry: Which pKd value belongs to Fc1ccc(CNc2ncccc2-c2ncc[nH]2)c2sncc12 ?
Reply text: 4.00 to 4.30

Inquiry: Which pKd value belongs to Fc1ccc(CNc2ncccc2-c2cccnn2)c2occc12 ?
Reply text: 4.30 to 5.00

Inquiry: Which pKd value belongs to Fc1ccc(CNc2ncccc2-c2cccnn2)c2sccc12 ?
Reply text: > 5.00

Inquiry: Which pKd value belongs to Fc1ccc(CNc2ncccc2-c2ccccn2)c2[nH]ccc12 ?
Reply text: 4.00 to 4.30

Inquiry: Which pKd value belongs to Fc1ccc(CNc2ncccc2-c2ccccn2)c2sncc12 ?
Reply text: < 4.00
